Tested on: BDF1 mice, B16 melanoma ip, median survival T/C
experimentDescription: NCI In Vivo Anticancer Drug Screen. Data for tumor model B16 Melanoma (intraperitoneal) in B6D2F1 (BDF1) mice
testSettings: endpoint: median survival time; dose: 12.5 mg/kg/injection; schedule: Q01DX009 (ip); vehicle: saline with Tween-80; higher = longer survival
Inconclusive results and toxic doses are left out.
endpointName: T/C

# compound, endpointName, measuredValue
records = [
    ("N#CCCSC(=S)C1CCCC1=N (centres undefined)", "T/C", "112 % of control"),
    ("O=S(=O)(O)C(O)c1cccnc1 (centres undefined)", "T/C", "102 % of control"),
    ("O=CN(SSN(C=O)C1CCCCC1)C1CCCCC1", "T/C", "110 % of control"),
    ("Cc1ccc(S(=O)(=O)N/N=C/C(=O)O)cc1", "T/C", "111 % of control"),
]
